System: MAT-Ly-Lu
Assay: Cytotoxicity against rat MAT-LyLu cells after 3 days by MTT assay
Type: functional, cell-based
Conditions: 72 h
OUTCOME_MEASURE: pIC50
# pIC50 = -log10(concentration in molar units)

## Input # query: pIC50 of entry "Nc1ncnc2c1c(-c1ccsc1)cn2[C@@H]1O[C@H](CO)[C@@H](O)[C@H]1O"
## Output 6.28

## Input # query: pIC50 of entry "Nc1ncnc2c1c(-c1ccoc1)cn2[C@@H]1O[C@H](CO)[C@@H](O)[C@H]1O"
## Output 5.73

## Input # query: pIC50 of entry "Nc1ncnc2c1c(-c1cccs1)cn2[C@@H]1O[C@H](CO)[C@@H](O)[C@H]1O"
## Output 6.74
